# Test system: HL-60
# Assay Comment: Cytotoxicity against human HL60 cells by MTT method
# Assay type: functional, cell-based
Measured Property: pIC50
One number for each entry, as −log10 of the molar value.

Entry COc1cccc2c1C(=O)c1c(O)c3c(c(O)c1C2=O)C[C@@](O)(C(=O)CO)C[C@@H]3O[C@H]1C[C@H](N)[C@H](O)[C@H](C)O1 — recorded pIC50 = 7.24

Every entry's value here was drawn from ChEMBL document CHEMBL3580598.
